Recorded AC50 values for a group of molecules are listed next.
TGT: human PAH with the R408W mutation (Homo sapiens, UniProt P00439, R408W)
Construct: expressed in transfected cells
Sequence (P00439 1-452 R408W): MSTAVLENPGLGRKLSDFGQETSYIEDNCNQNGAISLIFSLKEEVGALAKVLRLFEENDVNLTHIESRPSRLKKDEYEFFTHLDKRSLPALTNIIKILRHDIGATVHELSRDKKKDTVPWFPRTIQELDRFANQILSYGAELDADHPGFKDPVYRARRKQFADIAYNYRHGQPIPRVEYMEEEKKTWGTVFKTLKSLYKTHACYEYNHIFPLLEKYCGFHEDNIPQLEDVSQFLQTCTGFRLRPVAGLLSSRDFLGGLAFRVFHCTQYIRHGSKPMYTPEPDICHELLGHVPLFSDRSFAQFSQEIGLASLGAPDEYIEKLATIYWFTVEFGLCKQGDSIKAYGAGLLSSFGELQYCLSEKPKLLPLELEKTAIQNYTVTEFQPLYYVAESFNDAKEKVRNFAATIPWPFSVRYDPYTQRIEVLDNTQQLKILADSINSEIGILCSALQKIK
ASSAY INFO: Cell Based Phenylalanine Flux Assay
STATED CONDITIONS: A375 cells expressing human R408W PAH; 24 hrs compound incubation; 13C-Tyrosine by LC-MS; average where tested multiple times; read-out: AC50

# example entries with known answers
Cc1nn(C)cc1-c1nnc(C(=O)N2CCc3[nH]cnc3[C@H]2c2cc3cccc(F)n3n2)o1; 500 to 1000 nM
Cc1nc(C(C)(C)O)oc1C(=O)N1CCc2[nH]cnc2[C@H]1c1cc2c(C)cccn2n1; < 500 nM
CN(C)c1ccc2c(C(=O)N3CCc4[nH]cnc4[C@@H]3c3cc4c(C(F)(F)F)cccn4n3)cnn2c1; > 5000 nM

Incoming: Report AC50 from human PAH with the R408W mutation (Homo sapiens, UniProt P00439, R408W) testing of "Cc1cccn2nc([C@H]3c4nc[nH]c4CCN3C(=O)c3nc(C(F)(F)F)nn3C)cc12"
Outgoing: > 5000 nM

Incoming: Report AC50 from human PAH with the R408W mutation (Homo sapiens, UniProt P00439, R408W) testing of "O=C(CC1(O)CCC1)N1CCc2[nH]cnc2[C@H]1c1cc2ccccn2n1"
Outgoing: < 500 nM

Incoming: Report AC50 from human PAH with the R408W mutation (Homo sapiens, UniProt P00439, R408W) testing of "Cc1cccn2nc([C@H]3c4nc[nH]c4CCN3C(=O)c3nnc(-c4ccn(C(F)F)n4)o3)cc12"
Outgoing: 1000 to 5000 nM

Incoming: Report AC50 from human PAH with the R408W mutation (Homo sapiens, UniProt P00439, R408W) testing of "COc1ccc(-c2nnc(C(=O)N3CCc4[nH]cnc4[C@@H]3c3cc4c(Cl)cccn4n3)o2)nc1"
Outgoing: 1000 to 5000 nM

Incoming: Report AC50 from human PAH with the R408W mutation (Homo sapiens, UniProt P00439, R408W) testing of "CC(C)(O)c1nc(C(F)F)c(C(=O)N2CCc3[nH]cnc3[C@H]2c2cc3cccc(C(F)(F)F)n3n2)o1"
Outgoing: < 500 nM

Incoming: Report AC50 from human PAH with the R408W mutation (Homo sapiens, UniProt P00439, R408W) testing of "CC(C)(O)c1nc(Cl)c(C(=O)N2CCc3[nH]cnc3[C@H]2c2cc3ccccn3n2)o1"
Outgoing: 500 to 1000 nM

Incoming: Report AC50 from human PAH with the R408W mutation (Homo sapiens, UniProt P00439, R408W) testing of "Fc1cccn2nc([C@H]3c4nc[nH]c4CCN3c3nnc(-c4ccccn4)o3)cc12"
Outgoing: > 5000 nM

Incoming: Report AC50 from human PAH with the R408W mutation (Homo sapiens, UniProt P00439, R408W) testing of "Cn1nccc1-c1nnc(C(=O)N2CCc3[nH]cnc3[C@H]2c2cc3cccc(C(F)F)n3n2)o1"
Outgoing: 500 to 1000 nM

Incoming: Report AC50 from human PAH with the R408W mutation (Homo sapiens, UniProt P00439, R408W) testing of "Cc1cccc2cc([C@@H]3c4nc[nH]c4CCN3C(=O)c3nnc(C(C)(C)F)o3)nn12"
Outgoing: < 500 nM

Incoming: Report AC50 from human PAH with the R408W mutation (Homo sapiens, UniProt P00439, R408W) testing of "CC(C)c1nnc(C(=O)N2CCc3[nH]cnc3[C@H]2c2cc3cccc(F)n3n2)o1"
Outgoing: 1000 to 5000 nM

Incoming: Report AC50 from human PAH with the R408W mutation (Homo sapiens, UniProt P00439, R408W) testing of "Cc1nc(C(C)(C)F)oc1C(=O)N1CCc2[nH]cnc2[C@H]1c1cc2c(F)cccn2n1"
Outgoing: < 500 nM

Incoming: Report AC50 from human PAH with the R408W mutation (Homo sapiens, UniProt P00439, R408W) testing of "O=C(c1nnc(-c2cnn(C(F)(F)F)c2)o1)N1CCc2[nH]cnc2[C@@H]1c1cc2c(C(F)F)cccn2n1"
Outgoing: 1000 to 5000 nM

Incoming: Report AC50 from human PAH with the R408W mutation (Homo sapiens, UniProt P00439, R408W) testing of "O=C(c1cnn2ccccc12)N1CCc2[nH]cnc2[C@H]1c1cc2c(F)cccn2n1"
Outgoing: < 500 nM

Incoming: Report AC50 from human PAH with the R408W mutation (Homo sapiens, UniProt P00439, R408W) testing of "CC(C)(C)c1nnc(C(=O)N2CCc3[nH]cnc3[C@@H]2c2cc3cccc(Cl)n3n2)o1"
Outgoing: 1000 to 5000 nM

Incoming: Report AC50 from human PAH with the R408W mutation (Homo sapiens, UniProt P00439, R408W) testing of "Cc1cccn2nc([C@@H]3c4nc[nH]c4CCN3C(=O)c3nc(Cl)nn3C)cc12"
Outgoing: < 500 nM

Incoming: Report AC50 from human PAH with the R408W mutation (Homo sapiens, UniProt P00439, R408W) testing of "Cc1cccn2nc([C@@H]3c4nc[nH]c4CCN3c3ncccn3)cc12"
Outgoing: < 500 nM

====

Recorded AC50 values for a group of compounds are listed next.
TGT: human PAH with the R408W mutation (Homo sapiens, UniProt P00439, R408W)
Construct: expressed in transfected cells
Sequence (P00439 1-452 R408W): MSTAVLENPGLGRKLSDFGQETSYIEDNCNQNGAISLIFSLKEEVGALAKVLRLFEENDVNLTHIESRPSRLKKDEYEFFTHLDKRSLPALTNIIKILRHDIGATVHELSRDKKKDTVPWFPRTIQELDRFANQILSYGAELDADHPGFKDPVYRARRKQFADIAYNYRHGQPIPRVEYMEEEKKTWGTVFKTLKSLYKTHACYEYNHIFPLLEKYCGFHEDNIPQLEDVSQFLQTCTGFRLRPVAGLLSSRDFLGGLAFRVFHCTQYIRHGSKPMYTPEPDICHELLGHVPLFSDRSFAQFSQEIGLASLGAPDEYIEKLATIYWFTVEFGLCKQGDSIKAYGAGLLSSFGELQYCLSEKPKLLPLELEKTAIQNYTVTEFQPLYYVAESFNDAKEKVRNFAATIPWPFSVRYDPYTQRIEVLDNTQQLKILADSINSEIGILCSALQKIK
ASSAY INFO: Cell Based Phenylalanine Flux Assay;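 note: after compound treatment, cells received sepiapterin plus isotope-labelled Phenylalanine for 4 hours, then labelled Tyrosine in the medium was quantified, 10-point 2-fold dilution series run in duplicate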
STATED CONDITIONS: A375 cells expressing R408W PAH; 24 hrs with compound, then 20 µM sepiapterin and 800 µM 13C9,15N-Phenylalanine for 4 hours; 13C-Tyrosine by LC-MS; average where tested multiple times; read-out: AC50

CC(C)(F)c1nnc(C(=O)N2CCc3[nH]cnc3C2c2cc3cc(F)ccn3n2)o1 (single isomer, unassigned); 1 to 5 µM
CC(C)(O)c1ncc(C(=O)N2CCc3[nH]cnc3[C@H]2c2cc3cccc(Cl)n3n2)o1 (single isomer, unassigned); 1 to 5 µM
Cc1cccc2cc(C3c4nc[nH]c4CCN3C(=O)c3ncnn3C)nn12 (stereo not drawn); 1 to 5 µM
Cc1nc(C(=O)N2CCc3[nH]cnc3C2c2cc3cccc(C)n3n2)n(C)n1 (stereo not drawn); 1 to 5 µM
O=C(c1cnc(-c2ccccn2)o1)N1CCc2[nH]cnc2C1c1cc2ccccn2n1 (stereo not drawn); 1 to 5 µM
CN(C)Cc1ccc2c(C(=O)N3CCc4[nH]cnc4C3c3cc4cccc(C(F)F)n4n3)cnn2c1 (stereo not drawn); > 5 µM
Cc1cccn2nc(C3c4nc[nH]c4CCN3C(=O)c3oc(C(C)O)nc3C(F)F)cc12 (stereo not drawn); 1 to 5 µM
O=C(c1nnc(C2CC(F)(F)C2)o1)N1CCc2[nH]cnc2C1c1cc2cccc(C(F)(F)F)n2n1 (stereo not drawn); 1 to 5 µM
O=C(c1cnco1)N1CCc2[nH]cnc2C1c1cc2cccc(C(F)(F)F)n2n1 (stereo not drawn); > 5 µM
Cn1nc(C(F)(F)F)nc1C(=O)N1CCc2[nH]cnc2C1c1cc2cccc(C(F)(F)F)n2n1 (stereo not drawn); 1 to 5 µM

Incoming: Please indicate AC50 recorded for COc1cccn2nc(C3c4nc[nH]c4CCN3C(=O)c3nnc(-c4ncccn4)o3)cc12 (stereo not drawn)
Outgoing: > 5 µM

Incoming: Please indicate AC50 recorded for COc1cccn2nc([C@@H]3c4nc[nH]c4CCN3C(=O)c3nnc(C(C)(C)O)o3)cc12 (single isomer, unassigned)
Outgoing: > 5 µM

Incoming: Please indicate AC50 recorded for Cn1cc(-c2nnc(C(=O)N3CCc4[nH]cnc4C3c3cc4cc(C(F)(F)F)ccn4n3)o2)cn1 (stereo not drawn)
Outgoing: > 5 µM

Incoming: Please indicate AC50 recorded for Cc1cccc2cc([C@H]3c4nc[nH]c4CCN3C(=O)c3cnn4cc(C5CC5)ccc34)nn12 (single isomer, unassigned)
Outgoing: > 5 µM

Incoming: Please indicate AC50 recorded for Fc1cccn2nc(C3c4nc[nH]c4CCN3c3nnc(-c4cccnc4)o3)cc12 (single isomer, unassigned)
Outgoing: 1 to 5 µM

Incoming: Please indicate AC50 recorded for O=C(c1cnn2cc(C3CC3)ccc12)N1CCc2[nH]cnc2C1c1cc2cccc(C(F)(F)F)n2n1 (stereo not drawn)
Outgoing: 1 to 5 µM

Incoming: Please indicate AC50 recorded for FC(F)c1cccc2cc(C3c4nc[nH]c4CCN3c3nnc(C4CCC4)o3)nn12 (stereo not drawn)
Outgoing: 1 to 5 µM

Incoming: Please indicate AC50 recorded for Cc1ccn2nc(C3c4nc[nH]c4CCN3C(=O)c3nnc(C4CC4)o3)cc2c1 (stereo not drawn)
Outgoing: 1 to 5 µM

Incoming: Please indicate AC50 recorded for O=C(Cc1cnn2ccccc12)N1CCc2[nH]cnc2C1c1cc2ccccn2n1 (stereo not drawn)
Outgoing: > 5 µM

Incoming: Please indicate AC50 recorded for FC(F)c1cccn2nc(C3c4nc[nH]c4CCN3c3nnc(-c4cnccn4)o3)cc12 (stereo not drawn)
Outgoing: 1 to 5 µM

Incoming: Please indicate AC50 recorded for O=C(c1nnc(-c2ccccn2)o1)N1CCCc2[nH]cnc2C1c1cc2ccccn2n1 (stereo not drawn)
Outgoing: > 5 µM

Incoming: Please indicate AC50 recorded for Cn1cc(-c2nc(C3CC3)c(C(=O)N3CCc4[nH]cnc4C3c3cc4ccccn4n3)o2)cn1 (stereo not drawn)
Outgoing: > 5 µM
